# measured on: Adenosine receptor A2a (Homo sapiens, UniProt P29274)
# Sequence (P29274 whole entry): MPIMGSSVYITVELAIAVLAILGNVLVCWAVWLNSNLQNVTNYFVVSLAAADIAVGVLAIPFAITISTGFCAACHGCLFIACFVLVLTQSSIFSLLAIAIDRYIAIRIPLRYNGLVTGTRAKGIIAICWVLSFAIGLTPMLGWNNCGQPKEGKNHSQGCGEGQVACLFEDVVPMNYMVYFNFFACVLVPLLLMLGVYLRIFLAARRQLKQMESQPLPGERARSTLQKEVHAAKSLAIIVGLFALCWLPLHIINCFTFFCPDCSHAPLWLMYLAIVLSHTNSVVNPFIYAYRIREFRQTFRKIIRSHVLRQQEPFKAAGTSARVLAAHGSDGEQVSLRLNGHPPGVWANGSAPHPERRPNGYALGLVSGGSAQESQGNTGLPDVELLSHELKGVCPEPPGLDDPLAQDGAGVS
# procedure summary: Displacement of [3H]2-[p-(2-carboxyethyl)phenyl-ethylamino]-5'-N-ethylcarboxamido-adenosine from human A2aAR expressed in HEK293 cells at 10 uM after 60 mins by scintillation counting analysis
# Assay type: cell-based
metric: inhibition (%)
Number in %, nothing else.

Consider the following illustrative entries.
• CNC(=O)[C@@]12C[C@@H]1[C@@H](n1cnc3c(NC4CC4c4ccc(F)c(F)c4)nc(C#Cc4ccccc4)nc31)[C@H](O)[C@@H]2O (mixture of isomers) = 6
• CNC(=O)[C@@]12C[C@@H]1[C@@H](n1cnc3c(N[C@@H]4C[C@H]4c4ccc(F)c(F)c4)nc(C#Cc4ccccn4)nc31)[C@H](O)[C@@H]2O = 25
• CNC(=O)[C@@]12C[C@@H]1[C@@H](n1cnc3c(NC4CC4c4ccccc4)nc(C#Cc4ccccc4)nc31)[C@H](O)[C@@H]2O (mixture of isomers) = 43
• CNC(=O)[C@@]12C[C@@H]1[C@@H](n1cnc3c(N[C@H]4C[C@@H]4c4ccc(F)c(F)c4)nc(C#Cc4ccccc4)nc31)[C@H](O)[C@@H]2O = 0

Task item: Provide only the value of recorded inhibition for CNC(=O)[C@@]12C[C@@H]1[C@@H](n1cnc3c(NC4CC4c4cccc(F)c4)nc(C#Cc4ccccc4)nc31)[C@H](O)[C@@H]2O (mixture of isomers)
Reply: 0

Task item: Indicate the recorded inhibition value for this compound: CNC(=O)[C@@]12C[C@@H]1[C@@H](n1cnc3c(NC4CC4c4cccc(C)c4)nc(C#Cc4ccccc4)nc31)[C@H](O)[C@@H]2O (mixture of isomers)
Reply: 53

Task item: Output measured inhibition for this item: `CNC(=O)[C@@]12C[C@@H]1[C@@H](n1cnc3c(N[C@@H]4C[C@H]4c4ccc(F)c(F)c4)nc(C#Cc4ccccc4)nc31)[C@H](O)[C@@H]2O`
Reply: 0

Task item: Tell me measured inhibition for CNC(=O)[C@@]12C[C@@H]1[C@@H](n1cnc3c(NC4CC4c4cccc(Br)c4)nc(C#Cc4ccccc4)nc31)[C@H](O)[C@@H]2O (mixture of isomers) please.
Reply: 32

Task item: Identify measured inhibition corresponding to `CNC(=O)[C@@]12C[C@@H]1[C@@H](n1cnc3c(N[C@H]4C[C@@H]4c4ccc(F)c(F)c4)nc(C#Cc4ccccn4)nc31)[C@H](O)[C@@H]2O`
Reply: 41

Task item: Let me know recorded inhibition for CNC(=O)[C@@]12C[C@@H]1[C@@H](n1cnc3c(NC4CC4c4cccc(Cl)c4)nc(C#Cc4ccccc4)nc31)[C@H](O)[C@@H]2O (mixture of isomers) , thanks.
Reply: 39

###

# measured on: Adenosine receptor A3 (Homo sapiens)
# Sequence (P0DMS8 whole entry): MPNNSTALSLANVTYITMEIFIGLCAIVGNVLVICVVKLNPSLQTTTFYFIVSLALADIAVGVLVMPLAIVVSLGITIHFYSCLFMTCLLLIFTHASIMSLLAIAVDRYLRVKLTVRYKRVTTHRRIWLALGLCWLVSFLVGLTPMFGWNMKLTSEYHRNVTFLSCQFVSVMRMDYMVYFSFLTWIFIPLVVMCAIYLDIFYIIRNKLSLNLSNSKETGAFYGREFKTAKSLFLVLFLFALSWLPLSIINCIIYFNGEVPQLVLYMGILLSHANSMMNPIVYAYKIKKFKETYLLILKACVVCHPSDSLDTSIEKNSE
# procedure summary: Displacement of [125I]N6-(4-amino-3-iodobenzyl)adenosine-5'-N-methyluronamide from human A3AR expressed in CHO cells after 60 mins by scintillation counting analysis
# Assay type: cell-based
metric: Ki (nM)
Entry rule: numbers only, all in nM.

See these solved cases before continuing.
- CNC(=O)[C@@]12C[C@@H]1[C@@H](n1cnc3c(N)nc(C#Cc4ccccc4)nc31)[C@H](O)[C@@H]2O: 1.51
- CNC(=O)[C@@]12C[C@@H]1[C@@H](n1cnc3c(N[C@H]4C[C@@H]4c4ccc(F)c(F)c4)nc(C#Cc4ccccc4)nc31)[C@H](O)[C@@H]2O: 4.55

Next, consider the following compound.
Task item: Assign Ki to the following record: `CNC(=O)[C@@]12C[C@@H]1[C@@H](n1cnc3c(N[C@@H]4C[C@H]4c4ccc(F)c(F)c4)nc(C#Cc4ccccc4)nc31)[C@H](O)[C@@H]2O`
Reply: 16.9

Values from ChEMBL document CHEMBL3352566
